The measured values listed here are drawn from ChEMBL document CHEMBL5244210.

# experimental.protocol: Oral bioavailability in mouse
# Format: ADME, organism-based
# condition.label: in vivo
measured.parameter: bioavailability (%)
Report only the number, with the unit % understood.

# input Tell me the measured bioavailability of CCc1nc2ccc(Cl)cn2c1C(=O)NCc1ccc(N2CCC(c3ccc(OC(F)(F)F)cc3)CC2)cc1 , please.
# output 90

* * *

Let's look at some compounds and their measured MIC.
# Tested on: Mycobacterium tuberculosis
# experimental.protocol: Antibacterial activity against Mycobacterium tuberculosis assessed as bacterial growth inhibition
# Assay type: functional
Report only the number, with the unit µM understood.

Below, each entry is followed by its recorded MIC result.
# input Tell me the measured MIC of CC[C@@H](CO)NCCN[C@@H](CC)CO [ETHAMBUTOL] , please.
# output 10

# input Tell me the measured MIC of Oc1cc(Cl)ccc1Oc1ccc(Cl)cc1Cl [TRICLOSAN] , please.
# output 138

# input Tell me the measured MIC of CCOC(=O)NC(=O)c1ccsc1NC(=O)c1nc2ccccc2s1 , please.
# output 0.027

# input Tell me the measured MIC of O=C(C1CCN(c2nnc(-n3cccc3)s2)CC1)N1CCC(Cc2ccccc2)CC1 , please.
# output 4

# input Tell me the measured MIC of CCCCCCc1ccc(Oc2ccccc2C#N)c(O)c1 , please.
# output 11

New cases:
# input Tell me the measured MIC of CCCCCCc1ccc(Oc2ccccc2C)c(O)c1 , please.
# output 8.46

# input Tell me the measured MIC of CC(C)=CCC/C(C)=C/CNCCNC1C2CC3CC(C2)CC1C3 (configuration not stated) [SQ109] , please.
# output 0.78
